Entry source: ChEMBL document CHEMBL1961873

# Assayed system: Calcium/calmodulin-dependent protein kinase type II subunit delta (Homo sapiens);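 note: percent inhibition values are means, taken from the GSK PKIS kinase profiling set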
# Measurement parameters: at 0.1 µM
Value type: inhibition

Here are 2 compounds together with their reported answers.
INSERT INTO results (compound, assayed_system, recorded_value) VALUES
  ('Cc1ccc(NC(=O)c2ccnc(N3CCCC3)c2)cc1-c1ccc(C(=O)NCC2CC2)cc1', 'Calcium/calmodulin-dependent protein kinase type II subunit delta (Homo sapiens)', '4.6%'),
  ('N#Cc1c(NC(=O)c2cccc3ccccc23)sc2c1CCCC2', 'Calcium/calmodulin-dependent protein kinase type II subunit delta (Homo sapiens)', '2.34%');

Qu. Entry `NS(=O)(=O)c1ccc(N/N=C2\C(=O)Nc3ccc(C(=O)NCCc4c[nH]cn4)cc32)cc1` has what inhibition?
Ans. 8.76%

Qu. Record: `NC(=O)c1ccc(-c2nc(-c3ccccn3)c(-c3ccc4c(c3)OCO4)[nH]2)cc1`
Ans. 1.17%

Qu. Record: `Cc1ccc(C(=O)NC2CCCCC2)cc1-c1ccc(C(=O)NCC2CC2)cc1`
Ans. 4.88%

----------
# Tested on: Platelet-derived growth factor receptor alpha (Homo sapiens), P16234 [T674I]
# Sequence (P16234 whole entry T674I): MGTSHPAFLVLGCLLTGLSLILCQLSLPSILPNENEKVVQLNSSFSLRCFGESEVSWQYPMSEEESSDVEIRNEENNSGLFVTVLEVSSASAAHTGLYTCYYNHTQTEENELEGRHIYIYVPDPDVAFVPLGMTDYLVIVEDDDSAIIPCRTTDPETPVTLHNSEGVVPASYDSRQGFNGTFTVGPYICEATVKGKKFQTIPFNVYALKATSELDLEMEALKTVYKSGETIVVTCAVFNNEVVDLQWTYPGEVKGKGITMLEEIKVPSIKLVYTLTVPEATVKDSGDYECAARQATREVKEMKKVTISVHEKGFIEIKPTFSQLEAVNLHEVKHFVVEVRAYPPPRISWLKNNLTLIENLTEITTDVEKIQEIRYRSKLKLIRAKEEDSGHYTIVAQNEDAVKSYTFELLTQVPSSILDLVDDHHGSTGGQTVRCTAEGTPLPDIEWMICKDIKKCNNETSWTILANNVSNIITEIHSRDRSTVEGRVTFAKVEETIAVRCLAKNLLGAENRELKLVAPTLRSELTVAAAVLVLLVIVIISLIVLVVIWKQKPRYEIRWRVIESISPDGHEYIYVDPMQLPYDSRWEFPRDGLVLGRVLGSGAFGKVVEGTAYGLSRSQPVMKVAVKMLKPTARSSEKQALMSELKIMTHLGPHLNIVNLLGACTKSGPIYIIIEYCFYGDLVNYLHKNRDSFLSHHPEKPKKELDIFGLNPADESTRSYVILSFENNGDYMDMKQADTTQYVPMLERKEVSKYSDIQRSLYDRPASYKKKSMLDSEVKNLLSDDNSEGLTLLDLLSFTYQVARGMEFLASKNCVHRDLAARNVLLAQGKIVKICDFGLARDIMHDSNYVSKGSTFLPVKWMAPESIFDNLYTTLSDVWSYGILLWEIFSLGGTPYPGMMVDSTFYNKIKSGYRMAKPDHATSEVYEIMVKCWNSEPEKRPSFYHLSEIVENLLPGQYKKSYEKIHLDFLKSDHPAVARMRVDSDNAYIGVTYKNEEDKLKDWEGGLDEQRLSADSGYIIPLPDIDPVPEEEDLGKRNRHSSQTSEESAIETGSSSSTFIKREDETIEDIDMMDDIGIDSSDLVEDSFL
# Measurement parameters: at 1 µM
Value type: inhibition (%)
Give just the number in %; leave the unit off.

Here are 9 compounds together with their reported answers.
INSERT INTO measurements (record_smiles, assayed_system, unit_of_measurement, recorded_value) VALUES
  ('CCn1c(-c2nonc2N)nc2cncc(C(=O)N3CC[C@H](N)C3)c21', 'Platelet-derived growth factor receptor alpha (Homo sapiens), P16234 [T674I]', '%', 8.93),
  ('Cc1cc(O)cc(C)c1/C=C/c1cncc(-c2nn[nH]n2)c1', 'Platelet-derived growth factor receptor alpha (Homo sapiens), P16234 [T674I]', '%', 5.59),
  ('CCCN1CCC=C(c2ccc(Nc3nc(Nc4ccccc4C(N)=O)c4cc[nH]c4n3)c(C)c2)C1', 'Platelet-derived growth factor receptor alpha (Homo sapiens), P16234 [T674I]', '%', 9.94),
  ('O=C1NC(=O)C(c2ccccc2Cl)=C1Nc1cccc(O)c1', 'Platelet-derived growth factor receptor alpha (Homo sapiens), P16234 [T674I]', '%', 2.66),
  ('CC(C)=Cc1cccc2c1/C(=N/Nc1ccc(S(N)(=O)=O)cc1)C(=O)N2', 'Platelet-derived growth factor receptor alpha (Homo sapiens), P16234 [T674I]', '%', 46.5),
  ('Nc1nc(-c2ccc3c(c2)C(=Cc2cc(Br)c(O)c(Br)c2)C(=O)N3)cs1', 'Platelet-derived growth factor receptor alpha (Homo sapiens), P16234 [T674I]', '%', -0.01),
  ('Nc1nc(-c2ccccn2)c(-c2ccc3ncccc3n2)s1', 'Platelet-derived growth factor receptor alpha (Homo sapiens), P16234 [T674I]', '%', 7.4),
  ('Fc1cccc(COc2ccc(Nc3ncnc4sc(-c5cccs5)cc34)cc2Cl)c1', 'Platelet-derived growth factor receptor alpha (Homo sapiens), P16234 [T674I]', '%', 9.66),
  ('NS(=O)(=O)c1cccc(-c2ccc3c(NC(=O)C4CC4)n[nH]c3c2)c1', 'Platelet-derived growth factor receptor alpha (Homo sapiens), P16234 [T674I]', '%', 1.24);

Alright, here's another compound for you.
Qu. Entry `COc1cc2c(cc1Nc1nc(N3CCc4ccccc43)c3cc[nH]c3n1)N(C(=O)CN(C)C)CC2` has what inhibition?
Ans. 0.13
